test details: fu,PL from membrane affinity to PL-covered silica beads, PS
Assay type: in vitro ADME
test parameters: silica beads covered with phosphatidylserine (PS), Transil; beads coated with pure PS, 15 min incubation; read-out: fu,PS Geomean
Categorize each record by its fraction unbound at 15 min using lower segment: < 0.001; middle segment: ≥ 0.001 and < 0.003; upper segment: ≥ 0.003

CCCNC(=O)NS(=O)(=O)c1ccc(Cl)cc1 [Chlorpropamide] :: upper segment

Now turn to the next molecule.
Q: Sort into band: CCC(C)(C)C(=O)O[C@H]1C[C@@H](C)C=C2C=C[C@H](C)[C@H](CC[C@@H]3C[C@@H](O)CC(=O)O3)[C@H]21 [Simvastatin]
A: lower segment
